# normalized growth per entry
- method-notes: chemical genetic growth profiling, strain panel (AID 1159580);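 note: tested at 20 µM; growth read once vehicle control cultures reached saturation at 30 °C; 1 = growth at the plate median or of vehicle wells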
- condition-label: S. cerevisiae strains, growth OD, strain wild type, stronger effect = lower value
The campaign covered roughly 5,500 compounds. About 2,000 (36%) were called active. Inconclusive results (about 18%) are left out. Some of the results follow.
Respond with the number and no other words.

>>> recorded_number("C=CCCCCCCCCCCCC(O)CC(O)COC(C)=O (configuration not stated) (tested in a mixture with another compound)")
0.796
>>> recorded_number("COc1cc2occ(-c3ccccc3)c(=O)c2c(OC)c1C")
0.928
>>> recorded_number("COc1cc(-c2coc3cc(OCc4ccccc4)c(OC)c(O)c3c2=O)cc(O)c1OC")
0.663
>>> recorded_number("O=S1OCC2C(CO1)C1(Cl)C(Cl)=C(Cl)C2(Cl)C1(Cl)Cl (configuration not stated)")
0.987
>>> recorded_number("C=C1CCC2C(CC2(C)C)C(=O)CCC1O (configuration not stated)")
0.989

Endpoint output: normalized growth of `N#Cc1ncc(C(F)(F)F)cc1Oc1ccc(Cl)cc1` . Value? 0.851

Another molecule to look at: `C=C1C(=O)O[C@@H]2C[C@@]3(C)CCC[C@H](C)C3=C[C@H]12` 0.882

Another molecule to look at: `NC[C@@H]1CC[C@@H](N)[C@@H](O[C@H]2[C@H](O)[C@@H](O[C@H]3O[C@H](CO)[C@@H](O)[C@H](N)[C@H]3O)[C@H](N)C[C@@H]2N)O1` 0.992

Another molecule to look at: `COc1cc(-c2coc3cc(OCc4ccccc4)c(OC)c(O)c3c2=O)cc(OCc2ccccc2)c1OC` 1

###

- method-notes: chemical genetic growth profiling, strain panel (AID 1159580);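 note: tested at 20 µM; growth read once vehicle control cultures reached saturation at 30 °C; 1 = growth at the plate median or of vehicle wells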
- condition-label: S. cerevisiae deletion strains, growth OD, locus YMR219W, strain ESC1, stronger effect = lower value
Hit rate of the full screen: of about 5,500 compounds, about 2,000 (36%) were called active. Inconclusive results (about 18%) are left out. Some of the results follow.
# normalized growth per entry

Below are worked cases with known answers.
>>> result("CC12NC(=O)NC1(C)NC(=O)N2 (configuration not stated)")
"1.01 (inactive)"
>>> result("N#Cc1c(F)cccc1Oc1ccc(F)cc1")
"0.971 (inactive)"
>>> result("CC(C)(C)S(=O)(=O)/C(C#N)=C/N1CCCCC1")
"1.02 (inactive)"
>>> result("CCOC(=O)Cn1c(=O)c(C#N)cn(C(C)C)c1=O")
"1.01 (inactive)"
>>> result("O=C(CSCc1cccc2ccccc12)NNC(=O)c1ccc(F)cc1")
"0.99 (inactive)"
>>> result("CC(C)n1cc(C#N)c(=O)n(Cc2ccccc2)c1=O")
"1 (inactive)"

Now look at this one.
Endpoint output: normalized growth of `N#Cc1ncc(C(F)(F)F)cc1Oc1ccc(Cl)cc1` . Value? 0.814 (active)

###

- method-notes: chemical genetic growth profiling, strain panel (AID 1159580);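 note: tested at 20 µM; growth read once vehicle control cultures reached saturation at 30 °C; 1 = growth at the plate median or of vehicle wells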
- condition-label: S. cerevisiae deletion strains, growth OD, locus YBR231C, strain swc5
Screen size: about 5,500 compounds; about 2,000 (36%) were called active. Inconclusive results (about 18%) are left out. No stated cut-off is given here; in the data, active means normalized growth mostly below about 0.91 (no sharp cut-off); inconclusive means no clear call, values can overlap the other calls; inactive means mostly above about 0.92. The list shows a part of the results.
Reply using exactly one outcome from active, inactive

>>> label("Nc1nc2ncc(=O)[nH]c2c(=O)[nH]1")
"inactive"
>>> label("CCC(C)(C)C(=O)O[C@H]1C[C@@H](C)C=C2C=C[C@H](C)[C@H](CC[C@@H]3C[C@@H](O)CC(=O)O3)[C@H]21")
"active"
>>> label("C[N+]1(C)C2CC(OC(=O)[C@@H](CO)c3ccccc3)CC1C1OC12 (some centres undefined)")
"inactive"
>>> label("C=C1C(=O)O[C@@H]2C[C@@]3(C)CCC[C@H](C)C3=C[C@H]12")
"active"
>>> label("NC(N)=NS(=O)(=O)c1ccc(N)cc1")
"inactive"
>>> label("CC(=O)Oc1c(C)cccc1C(=O)O")
"inactive"
>>> label("CCC(C)C(=O)O[C@H]1C[C@H](O)C=C2C=C[C@H](C)[C@H](CC[C@@H](O)C[C@@H](O)CC(=O)O)C21 (some centres undefined)")
"inactive"
>>> label("O=c1cc(-c2ccccc2O)oc2cc(O)ccc12")
"inactive"
>>> label("C[C@H]1CC[C@@H](C(C)(C)O)CC2=C1CC[C@@H]2C")
"inactive"
>>> label("Cc1ccc(Cl)c(Nc2ccccc2C(=O)O)c1Cl")
"active"

Could you please tell me the result logged for `Cc1cccc(Nc2ccccc2C(=O)O)c1C` in this assay? inactive

Another compound to look at: `Cc1c(Cl)cccc1Nc1ccccc1C(=O)O` active

Another compound to look at: `O=C(O)CN1C(=O)c2cccc3cccc(c23)C1=O` inactive

Another compound to look at: `O=C(O)CN(CC(=O)O)Cc1cc2c(-c3ccccc3C(=O)O)c3cc(CN(CC(=O)O)CC(=O)O)c(=O)cc-3oc2cc1O` inactive
